# SYSTEM_UNDER_TEST: Cytochrome P450 3A4 (Homo sapiens) (UniProt P08684)
# Sequence (P08684 whole entry, looked up): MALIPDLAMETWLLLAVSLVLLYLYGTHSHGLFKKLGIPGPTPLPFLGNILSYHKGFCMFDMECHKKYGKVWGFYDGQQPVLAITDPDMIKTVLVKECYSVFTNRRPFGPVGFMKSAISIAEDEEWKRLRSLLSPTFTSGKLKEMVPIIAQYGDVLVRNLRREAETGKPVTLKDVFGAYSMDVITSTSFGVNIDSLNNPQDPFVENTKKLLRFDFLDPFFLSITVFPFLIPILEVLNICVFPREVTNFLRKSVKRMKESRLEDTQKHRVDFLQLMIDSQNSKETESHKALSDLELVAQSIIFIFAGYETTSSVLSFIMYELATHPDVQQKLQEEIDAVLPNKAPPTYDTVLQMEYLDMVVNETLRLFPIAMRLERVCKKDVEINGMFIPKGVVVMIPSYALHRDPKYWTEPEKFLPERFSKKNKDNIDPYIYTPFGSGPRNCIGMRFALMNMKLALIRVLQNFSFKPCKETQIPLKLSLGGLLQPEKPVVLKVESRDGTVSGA
# METHOD_SUMMARY: Cytochrome panel assay with activity outcomes
# EXPERIMENTAL_SETUP: recombinant CYP, pro-luciferin dealkylation, luminescence, p450-cyp3a4; series mostly up to 57.1 µM
Out of some 16,000 compounds screened, about 5,100 (32%) were called active. Not shown: some 25% with an inconclusive outcome. The list shows a part of the results.
EXPERIMENTAL_ENDPOINT: AC50

• O=C(CCN1CCN(c2ccccc2F)CC1)Nc1ccccc1F = inactive
• Cc1nnc(SCC(=O)N2CC(=O)Nc3ccccc32)n1Cc1ccccc1 = 7.94 µM (active)
• COc1ccc(-c2cc3ccccc3n2CC(O)CNCCO)cc1 (configuration not stated) = 15.8 µM (active)
• COc1ccccc1-c1nc(NCc2cnc(C)cn2)c2ccccc2n1 = 15.8 µM (active)
• O=C(Nc1cc2c(oc1=O)CCCC2=O)c1ccc(Cl)cc1 = inactive
• C/C(=N\OC(=O)c1ccc(F)cc1)c1nccs1 = inactive
• CN(C)/C=C/C(=O)c1ccc(Cl)cc1 = inactive
• Cc1onc(-c2c(Cl)cccc2Cl)c1C(=O)N1CCc2ccccc2C1 = 3.98 µM (active)
• C[N+]1(C)C[C@@H](O)C[C@@H]1C(=O)[O-] = inactive
• OC(COCC1COc2ccccc2O1)CN1CCN(c2ccccc2F)CC1 (configuration not stated) = inactive
• Cc1cnc(CNc2ccnc(-c3ccccc3C(F)(F)F)n2)cn1 = inactive
• CCOC(=O)c1ccc(NC(=O)C(=O)NCC2CCCO2)cc1 (configuration not stated) = inactive
• COc1ccccc1CC(=N)N1C[C@@H]2C(=O)CCC(c3ccccc3)(c3ccccc3)[C@@H]2C1 = 3.16 µM (active)
• CSc1nc(-c2ccc(C)cc2)nc(C(Cl)Cl)n1 = inactive
• CCOC(=O)Cn1c(-c2ccccc2)nc2ccccc2c1=O = inactive
• Cc1ccccc1-c1nccc(-n2ccnc2)n1 = 1 µM (active)
• O=C(Nc1cccc(F)c1)N1CCC2(CC1)CCN(C(=O)c1cnccn1)CC2 = inactive
• CC(C)NC(=O)N1CCC2(CC1)CCN(S(C)(=O)=O)CC2 = inactive
• Cn1c(=O)cc(SCC(=O)NCCCN2CCOCC2)c2ccc(Cl)cc21 = 7.94 µM (active)
• COc1ccc(O[C@H]2C=C[C@@H](c3ccccc3)O[C@H]2COC(=O)CC/C(C)=N\O[C@@H](C)c2cn([C@H]3COC[C@H]3O)nn2)cc1 = 3.98 µM (active)
• CO[C@H]1COC(=O)C/C=C\[C@H](C)[C@@H](NS(=O)(=O)c2ccc(C)cc2)COC(=O)CCC[C@@H]1C = 3.98 µM (active)
• Cc1ccc(C2=Nc3ccccc3S[C@@H](c3cccc([N+](=O)[O-])c3)C2)cc1 = 3.98 µM (active)
